# System: HRECs
# assaySummary: HREC proliferation assay (alamarBlue), GI50 determination
# Assay type: cell-based, human
# statedConditions: Homo sapiens, HREC, 44 h, proliferation of HRECs
recordedEndpoint: GI50 (µM)
Write the value in µM as a bare number.

Report GI50 for `CCCc1cc(=O)n2nc(CNc3ccc(C(C)(C)C)cc3)nc2[nH]1`
3.8

Report GI50 for `COc1ccc(Cl)cc1NCc1cc(=O)n2nc(-c3ccc(C(C)(C)C)cc3)nc2[nH]1`
21.7

Report GI50 for `Cc1ccc(Cl)cc1NCc1cc(=O)n2nc(-c3ccc(C(C)(C)C)cc3)nc2[nH]1`
42.3
